- Tested System: NOV1401; also: test concentration or dose not given here
- Sequence (VH, as listed by the source, chain 1 of 2): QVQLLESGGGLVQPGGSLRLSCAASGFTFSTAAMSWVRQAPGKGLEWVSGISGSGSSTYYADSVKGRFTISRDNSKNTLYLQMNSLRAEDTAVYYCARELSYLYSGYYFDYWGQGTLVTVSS
- Sequence (VL, as listed by the source, chain 2 of 2): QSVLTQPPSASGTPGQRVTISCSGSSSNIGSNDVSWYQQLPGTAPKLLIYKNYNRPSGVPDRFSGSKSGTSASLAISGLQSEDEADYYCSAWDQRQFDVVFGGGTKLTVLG
- Protocol Summary: cell-based or functional assay
Here the recorded TGA percentage reversal, NOV1401/anti NOV1401 ratio 1/10 (n/n) is given for each entry.
# output: bare number, implied unit %

Binder: IDT5 (Fab, V domains shown, Fab; also called anti-NOV1401 Fab IDT5) VH: QVQLVESGGGLVKPGGSLRLSCAASGFTFSSAAVHWVRQAPGKGLEWVGRIKSKADAGTTDYAAPVKGRFTISRDDSKNTLYLQMNSLKTEDTAVYYCARDSPSISSYSIPYFSGMDVWGQGTLVTVSS VL: DIQMTQSPSSLSASVGDRVTITCRASQGIRAWLNWYQQKPGKAPKLLIYAASSLQSGVPSRFSGSGSGTDFTLTISSLQPEDFATYYCHQYITHPPTFGQGTKVEIKR
Measured Number: 72

Binder: IDT7 (Fab, V domains shown, Fab; also called anti-NOV1401 Fab IDT7) VH: QVQLVESGGGLVKPGGSLRLSCAASGFTFSSNAMHWVRQAPGKGLEWVGRIKSKTDGGTTDYAAPVKGRFTISRDDSKNTLYLQMNSLKTEDTAVYYCARDHYYYPFAYWGQGTLVTVSS VL: DIQMTQSPSSLSASVGDRVTITCRASQSIRYNLAWYQQKPGKAPKLLIYAASSLQSGVPSRFSGSGSGTDFTLTISSLQPEDFATYYCHQYIAKPITFGQGTKVEIKR
Measured Number: 71

Binder: IDT4 (Fab, V domains shown, Fab; also called anti-NOV1401 Fab IDT4) VH: QVQLVESGGGLVKPGGSLRLSCAASGFTFSSAAVHWVRQAPGKGLEWVGRIKSKASGGTTDYAAPVKGRFTISRDDSKNTLYLQMNSLKTEDTAVYYCARDSPSISSYSIPYFSGMDVWGQGTLVTVSS VL: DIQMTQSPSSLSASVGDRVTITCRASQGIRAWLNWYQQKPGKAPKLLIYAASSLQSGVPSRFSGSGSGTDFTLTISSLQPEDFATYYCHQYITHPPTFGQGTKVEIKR
Measured Number: 60

TGA percentage reversal, NOV1401/anti NOV1401 ratio 1/10 (n/n) for IDT3 (Fab, V domains shown, Fab; also called anti-NOV1401 Fab IDT3) VH: QVQLVESGGGLVKPGGSLRLSCAASGFTFQSAAVHWVRQAPGKGLEWVGRIKSKADGGTTDYAAPVKGRFTISRDDSKNTLYLQMNSLKTEDTAVYYCARDSPSISSYSIPYFSGMDVWGQGTLVTVSS VL: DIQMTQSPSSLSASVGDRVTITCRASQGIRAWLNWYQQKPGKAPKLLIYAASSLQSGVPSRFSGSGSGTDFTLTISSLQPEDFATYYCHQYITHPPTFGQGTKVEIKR is 67

Summary for this binder, IDT12 (antibody, human IgG1, kappa, V domains shown, also called anti-NOV1401 IgG IDT12; full length IgG format for IDT2) VH: QVQLVESGGGLVKPGGSLRLSCAASGFTFSSAAVHWVRQAPGKGLEWVGRIKSKADGGTTDYAAPVKGRFTISRDDSKNTLYLQMNSLKTEDTAVYYCARDSPSISSYSIPYFSGMDVWGQGTLVTVSS VL: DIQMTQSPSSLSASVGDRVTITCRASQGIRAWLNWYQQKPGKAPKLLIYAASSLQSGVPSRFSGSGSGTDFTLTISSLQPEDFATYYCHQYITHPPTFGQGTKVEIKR : TGA percentage reversal, NOV1401/anti NOV1401 ratio 1/10 (n/n) is 62

Each recorded value in this set is attributed to patent US20200308301A1.
